- Test system: tet operator sequence
- measurement.protocol: β-galactosidase activity of a tetracycline-regulated promoter in transformed E. coli with revTetR, in the presence and absence of anhydrotetracycline (atc)
- Format: cell-based, Escherichia coli
- condition.context: RevTetR isolate cultured in the presence of anhydrotetracycline (ATC)
metric.name: β-Galactosidase Activity, Cultured With ATC

INSERT INTO results (molecule, quantitative_result) VALUES
  ('TetRrev28/46: revTetR(BD) A13A V20G G21R I22N G24G (protein, Modified tetracycline repressor, revTetR(BD) A13A V20G G21R I22N G24G) MSRLDKSKVINSALELLNEGRNEGLTTRKLAQKLGVEQPTLYWHVKNKRALLDALAVEILARHHDYSLPAAGESWQSFLRNNAMSFRRALLRYRDGAKVHLGTRPDEKQYDTVETQLRFMTENGFSLRDGLYAISAVSHFTLGAVLEQQEHTAALTDRPAAPDENLPPLLREALQIMDSDDGEQAFLHGLESLIRGFEVQLTALLQIV', 1.1482),
  ('TetRrev29/9: revTetR(BD) L17V N18Y G21G I22T (protein, Modified tetracycline repressor, revTetR(BD) L17V N18Y G21G I22T) MSRLDKSKVINSALELVYEVGTEGLTTRKLAQKLGVEQPTLYWHVKNKRALLDALAVEILARHHDYSLPAAGESWQSFLRNNAMSFRRALLRYRDGAKVHLGTRPDEKQYDTVETQLRFMTENGFSLRDGLYAISAVSHFTLGAVLEQQEHTAALTDRPAAPDENLPPLLREALQIMDSDDGEQAFLHGLESLIRGFEVQLTALLQIV', 11.772),
  ('TetRrev28/41: revTetR(BD) L17L N18D V20R I22N (protein, Modified tetracycline repressor, revTetR(BD) L17L N18D V20R I22N) MSRLDKSKVINSALELLDERGNEGLTTRKLAQKLGVEQPTLYWHVKNKRALLDALAVEILARHHDYSLPAAGESWQSFLRNNAMSFRRALLRYRDGAKVHLGTRPDEKQYDTVETQLRFMTENGFSLRDGLYAISAVSHFTLGAVLEQQEHTAALTDRPAAPDENLPPLLREALQIMDSDDGEQAFLHGLESLIRGFEVQLTALLQIV', 5.6333),
  ('TetRrev96/99-20: revTetR(BD) G96S V99K (protein, Modified tetracycline repressor, revTetR(BD) G96S V99K) MSRLDKSKVINSALELLNEVGIEGLTTRKLAQKLGVEQPTLYWHVKNKRALLDALAVEILARHHDYSLPAAGESWQSFLRNNAMSFRRALLRYRDSAKKHLGTRPDEKQYDTVETQLRFMTENGFSLRDGLYAISAVSHFTLGAVLEQQEHTAALTDRPAAPDENLPPLLREALQIMDSDDGEQAFLHGLESLIRGFEVQLTALLQIV', 3.0074),
  ('TetRrevAtc4-52: revTetR(BD) D53F A54T L55M I59S H63Q (protein, Modified tetracycline repressor, revTetR(BD) D53F A54T L55M I59S H63Q) MSRLDKSKVINSALELLNEVGIEGLTTRKLAQKLGVEQPTLYWHVKNKRALLFTMAVESLARQHDYSLPAAGESWQSFLRNNAMSFRRALLRYRDGAKVHLGTRPDEKQYDTVETQLRFMTENGFSLRDGLYAISAVSHFTLGAVLEQQEHTAALTDRPAAPDENLPPLLREALQIMDSDDGEQAFLHGLESLIRGFEVQLTALLQIV', 5.575);
